# assayDetails: yeast display, Sf9 membrane polyspecificity reagent, FACS + sequencing; frameworks hold sequencing errors
resultType: polyreactivity (PSR sort gate)

seqText: QVQLVESGGGLVQAGGSLRLSCAASGSILVHYAMGWYRPAPGKEWELVAAISSVGSTNYADSVKGRFTMTRDNAKNTVYLQMNSLKPEDTAVYYCAARASRWYIAVDYWRQGTQVTVSS
observedMeasurement: low polyreactivity

seqText: QVQLVESGGGLVQAGGSLRLSCAASGFTFGENAMGWYRQAPGKERELVATISDSGDSTYYADSVKGRFTISRDNAQNTVYLQMNSLKPEDTAVYYCAAPLPHRGYDEGYWGQGTQVTVSS
observedMeasurement: low polyreactivity

seqText: QVQLVESGGGLVQPGGRLRLSCAASGFTFHDYAMGWYRPAPGKERELVAAITKSGGRTYYADSVKGRFTISRDNAKNTVYLQMNSLKPEDTAVYFCAAASYRSQYDYYYWGQGTQVTVSS
observedMeasurement: high polyreactivity

seqText: QVQLVESGGGLVQAGGSLRLSCAASGRTFQRYAMGWYRQAPGKERELVAAITSGSRTNYADSVKGRFTSSRDNAKNTVYLQMNSLKPEDTAVYYCAADYTWRNNYCGQGTQVTVSS
observedMeasurement: high polyreactivity

Now turn to the next sequence.
Quick one: polyreactivity (PSR sort gate) for QVQLVESGGGLVQAGGSLRLSCAASGFTFGRYAMGRYRPAPGKVRELVATITRTGSTNYADSVKGRFTISRDNAKNTVDLQMHSLKPEDTAVYYCNAVYSACRYVKYDYWGQGTQVTVSS ?
low polyreactivity

====

# assayDetails: yeast display, Sf9 membrane polyspecificity reagent, FACS + sequencing; frameworks hold sequencing errors
resultType: polyreactivity (PSR sort gate)

seqText: QVQLVESGGGLVQAGGSLRLICAASGNIFGAYAMGWNIQAPGKERELVAVIRFDDGSTYYADSVKGRFTISRDNAKNTVYLQMNSLKPEDTAVDFCAVRLYLEMDYWGQGTQVTVSA
polyreactivity (PSR sort gate): high polyreactivity

seqText: QVQLVESGGGLVQAGGSLRLSCAASGSTLYHYDMGWYRQAPGKERELVAAITTSGDSTYYADSVKGRFTISRDNAKNTVYLQMNSLKPEDTAVYYCNADVFKTVFYIDRYYYWGQGTQVTVSS
polyreactivity (PSR sort gate): low polyreactivity

seqText: QVQLVESGGGLVQAGGSLRLSCAASGNIFKWYAMGWYRQAPGKERELVAAISKSGGSTYYADSVKGRFTISRDNAKNTVYLQMNSLKPEDTAVYYCAAGWKHGTYRYTVESNFDYWGQGTQVTVSS
polyreactivity (PSR sort gate): high polyreactivity

seqText: QVQLVESGGGLVQAGGSLRLSCAASGSNFLHNAMGWYRQAPGKERELDAAISGTGGRTYYADSVKGRFTISRDTANNTVYLQMNGLKPEDTAVYYWAARGSHVSIPRYNYWGQGTQVTVSS
polyreactivity (PSR sort gate): high polyreactivity

seqText: QVQLVESGGGLVQAGGSLRLSCAASGFTFRHYAMGWYRQAPGKARQLVAAITKSGDSTYYADSVKWRFTISRDIAKKTVYLQMNSLNPEDTEVYYCATPYTLSRADNYWGQGTQVTVSS
polyreactivity (PSR sort gate): low polyreactivity

seqText: QVQLVESGGGLVQAGGSLRLSCAASGIIFDPYAMGWYRQAPGKERELVADIDNASSTYYADSVKGRFTISRDNAKNTVYLQMNSLKPEDTAVYYCAADLWYGGEYWGQGTQVTVSS
polyreactivity (PSR sort gate): low polyreactivity

seqText: QVQLVDSGGGLVQAGGSLRLSCAASGNTFRIYAMAWYRQAPGKERELVAAISQSGGSTYYADSVKGRFTISRDNAKNTVYLQMNSLKPEDTAVYYCAATGARRKFYYWGQGTQVTVSS
polyreactivity (PSR sort gate): high polyreactivity

seqText: QDQHVESGGGLVQAGGSLRLSCADSGIIFYPNAMGWYRQAPGKERELVAAITGSGGSTYYADSVKGRFTISRDNAKYTVYIQMNSLKPEDTAVYYCATRYHRSDPSRDYWGQGTQVTVSS
polyreactivity (PSR sort gate): low polyreactivity

seqText: QVQLVESGGGLVQAGGSLRLSCAASGSIFRSYAMGWYRQAPGKERELVAAISSRSGSTYYADSVKGRFTISRDNAKNTVYLQMISLKPEDTAVYYCAAQHRHSYGYWGQGTQVTVSS
polyreactivity (PSR sort gate): high polyreactivity

seqText: QVQLVESGGGLVQAGGSLRLSCAASGRTFYRYAMGWYRQAPGKERELVAAISSNGGSTYYADSVKGRFTISRDNAKNTVYLQMNSLKPEDTAVYYCYYYYSRLFDYWGQGTQVTVSS
polyreactivity (PSR sort gate): high polyreactivity

With those in mind, consider the next sequence.
Request the reported polyreactivity (PSR sort gate) associated with QVQLVESGGGLVQAGGSLRLSCAASGSTFLAYTMGWYRQAPEKERELVADNTSNGGSTYYADSVKGRFTISRDNAKNTVYLQMNSLKPEDTAVYYCNTGSGAGITRPDDDFNYWGQGTQVTVSS
low polyreactivity

====

# assayDetails: yeast display, Sf9 membrane polyspecificity reagent, FACS + sequencing; frameworks hold sequencing errors

seqText: QVQLVESGGGLVQAGGSLRLSCAASGRIFWSNAMGWYRQAPGKERELVAAISYSGGSTYYADSVKGRFTISRDNAKNTVYLQMNSLKPEDTAVYYCAALFRPRVHRFDYWGQGTQVTVSS
polyreactivity (PSR sort gate): low polyreactivity

seqText: QVQIEESGGGLVQAGGSLRLSCAASGNIFPGNDMGWYRQAPRKERELVAAITSRDGSTYYADSVKGRFTISRDNAKNTVYLQMNSLKPEDTAVYYCNTDPDLYYLATAGYWSHDYWGQGTQVTVSS
polyreactivity (PSR sort gate): low polyreactivity

seqText: QVQLVESCGGLVQAGGSLRLSCAASGSIFQSYAMGWYRQAPGKERELVAAITERGGSTYYADSVKGRFTISRDNAKNTVYLQMNSLKPEDTAVYYCAADIYYWWGLSDLYTPTEGDYWGQGTQVTVSS
polyreactivity (PSR sort gate): low polyreactivity

====

# assayDetails: yeast display, Sf9 membrane polyspecificity reagent, FACS + sequencing; frameworks hold sequencing errors
resultType: polyreactivity (PSR sort gate)

seqText: QVQLVESGGGLVQAGGSLRLSCAASGSIFYPYAMGWYRQAPGKERELVAAIRNGGSTYYADSVKGRFTISRDNAKNTVYLHMNSLKPEDTAVYYCAASVRRRHPFEYWGQGTQVTVSS
polyreactivity (PSR sort gate): high polyreactivity
--
seqText: QVQHVQSGGGLVQAGGSLPLSCDASASIFKYYTMGWYRQAPGKERELVATINFSGASTYYADSVKGRFTISRDNAKNTVYLQINSLKPEDTAVYYCAAVSSSTYRYYYWGQGTQVTVSS
polyreactivity (PSR sort gate): high polyreactivity
--
seqText: QDQLVESGGGLVQAGGSLRLSCAASGSTFQYYTMGWYRQAPGKERELVAAISGDGGNTYYADSVKGRFTISRDNAKNTVYLQMNRLKPEDTAVYYCNADGLILYDYWGQGTQVTVSW
polyreactivity (PSR sort gate): low polyreactivity
--
seqText: QVQLVESGGGLVQAGGSLRLSCAASGFTFRLYAMGWYRQAPGIERELVAAISSGGRTYYADSVKGRFTISRDNAKNTVYFQMNSLKPEDTAVNYCAVYPRDAERYGYWGQGSQVTVSS
polyreactivity (PSR sort gate): high polyreactivity
--
seqText: QVQLVESGGGLVQAGGSLRLSCAASGNIFVSYDLGWYRQAPGKERELVAAISWRGGSTYYADSVKGRFTNSRDNAKNTVFLKMNSLKPEDTAVYYCSVDDWLDWLFADFGYWGQGTQVTVSS
polyreactivity (PSR sort gate): low polyreactivity

Look up polyreactivity (PSR sort gate) for the entries below, preserving their order.
1. QVQLVESGGGLVQAGGSLRLSCAASGLTFHSYAMGWYRQAPGKERELVAAINYSGGRTDYADSVKGRFTISRDNALKSVYLQMNSLQPADTAVYFCAAQRASAYYCGQGTQVTVSS
2. QVQLVESGGGLVQAGGSLRLSCAASGFTFYYYAMGWYRQAPGKERELVATISSGGSTYYADSVKGRFTISRDNAKNTVYLQMNSLKPEDTAVYYCAADYLIYYLYEGSIKYGYWGQGTQVTVSS
3. QVQLVESGGGLVQAGGSLRLSCAASGRIIGLYTMGWYRQAPGKERELVAAINIRGTRTYYADSVKGRFTISRDNAKNTVYLQMTSLKPEDTAVYYCNAYPKSWELDYWGLGTQVTVSS
4. QVQLVESGGGLVQAGGSLRLSCAASGSIFGYNAMGWYRQARGKERELVAAITSSGGSTYYADSVKGRFTISRDNSKNTVYLQMKSLKPEDTAVYYCNARDWYIVWYDYWGQGTQVTVSS
5. QVQLVESGGGLVQAGGSLRLSCAASGTIFVNNAMGWYRQAPGKERELVAAIRRSGGNTYYADSVKGRFTISRDNAKNTVYLQMNSLKPEDTAVYYCNVVRRADSIRAKSRDYWGQGTQVTVSS
6. QVQLVESGGGLVQAGGSLRLSCAASGITFKRNAMGWYRQAPGKERELVAAISTTGGRTYYADSVKGRFTISRDNAKNTVYLQMNSLKPEDTAVYYCAARGGPVTYDYWGQGTQVTVSS

1. high polyreactivity
2. high polyreactivity
3. high polyreactivity
4. low polyreactivity
5. high polyreactivity
6. high polyreactivity

This collection of values is drawn from the nanobody polyreactivity screen of Harvey et al. (2022).
